Test system: Acinetobacter baumannii
assay method text: Antimicrobial activity against carbapenem-intermediate or resistant Acinetobacter baumannii isolates by agar dilution method
Format: functional
measured quantity: MIC90 (mg/L)
State the answer as a number, implicitly in mg/L.

Worked examples follow.
{"columns": ["compound", "unit text", "MIC90"],
 "data": [
  ["C[C@@H](O)[C@H]1C(=O)N2C(C(=O)O)=C(SCCNC=N)C[C@H]12 [IMIPENEM ANHYDROUS]", "mg/L", 64],
  ["CN(C)c1ccc(O)c2c1C[C@H]1C[C@H]3[C@H](N(C)C)C(O)=C(C(N)=O)C(=O)[C@@]3(O)C(O)=C1C2=O", "mg/L", 8]
]}

Next compound, please.
Bench note, Acinetobacter baumannii: entry CO[C@H]1/C=C/O[C@@]2(C)Oc3c(C)c(O)c4c(O)c(c(/C=N/N5CCN(C)CC5)c(O)c4c3C2=O)NC(=O)/C(C)=C\C=C\[C@H](C)[C@H](O)[C@@H](C)[C@@H](O)[C@@H](C)[C@H](OC(C)=O)[C@@H]1C , its MIC90 = 8

---

Tested on: Acinetobacter baumannii
assay method text: Antimicrobial activity against carbapenem-intermediate or resistant Acinetobacter baumannii isolates by agar dilution method
Assay type: functional
measured quantity: MIC50 (µg/mL)
# unit: µg/mL | format: bare number

Solved cases below.
{"columns": ["molecule", "measured quantity", "unit text", "reported measurement"],
 "data": [
  ["NCC[C@H](O)C(=O)N[C@@H]1C[C@H](N)[C@@H](O[C@H]2O[C@H](CN)[C@@H](O)[C@H](O)[C@H]2O)[C@H](O)[C@H]1O[C@H]1O[C@H](CO)[C@@H](O)[C@H](N)[C@H]1O", "MIC50", "µg/mL", 32],
  ["CO[C@H]1/C=C/O[C@@]2(C)Oc3c(C)c(O)c4c(O)c(c(/C=N/N5CCN(C)CC5)c(O)c4c3C2=O)NC(=O)/C(C)=C\\C=C\\[C@H](C)[C@H](O)[C@@H](C)[C@@H](O)[C@@H](C)[C@H](OC(C)=O)[C@@H]1C", "MIC50", "µg/mL", 4],
  ["C[C@H]1c2cccc(O)c2C(=O)C2=C(O)[C@]3(O)C(=O)C(C(N)=O)=C(O)[C@@H](N(C)C)[C@@H]3[C@@H](O)[C@@H]21.O", "MIC50", "µg/mL", 2],
  ["C[C@@H](O)[C@H]1C(=O)N2C(C(=O)O)=C(SCCNC=N)C[C@H]12 [IMIPENEM ANHYDROUS]", "MIC50", "µg/mL", 4],
  ["C[C@@H](O)[C@H]1C(=O)N2C(C(=O)O)=C(S[C@@H]3CN[C@H](C(=O)N(C)C)C3)[C@H](C)[C@H]12", "MIC50", "µg/mL", 16]
]}

The record that follows has no MIC50 shown yet.
Per the records, this molecule ( CN(C)c1ccc(O)c2c1C[C@H]1C[C@H]3[C@H](N(C)C)C(O)=C(C(N)=O)C(=O)[C@@]3(O)C(O)=C1C2=O ) has MIC50 equal to 0.5

---

MIC90 for assorted molecules
Tested on: Acinetobacter baumannii
assay method text: Antimicrobial activity against carbapenem-intermediate or resistant Acinetobacter baumannii isolates by agar dilution method
Type: functional

Some solved cases for reference:
{"columns": ["structure notation", "MIC90"],
 "data": [
  ["C[C@H]1c2cccc(O)c2C(=O)C2=C(O)[C@]3(O)C(=O)C(C(N)=O)=C(O)[C@@H](N(C)C)[C@@H]3[C@@H](O)[C@@H]21.O", "> 32 µg/mL"],
  ["C[C@@H](O)[C@H]1C(=O)N2C(C(=O)O)=C(S[C@@H]3CN[C@H](C(=O)N(C)C)C3)[C@H](C)[C@H]12", "> 128 µg/mL"]
]}

The molecule identified as NCC[C@H](O)C(=O)N[C@@H]1C[C@H](N)[C@@H](O[C@H]2O[C@H](CN)[C@@H](O)[C@H](O)[C@H]2O)[C@H](O)[C@H]1O[C@H]1O[C@H](CO)[C@@H](O)[C@H](N)[C@H]1O registered its MIC90 at > 32 µg/mL
